assay: Cytotoxicity against mouse J774.A1 cells; type: cell-based; details: read-out: TC50 (the source's name)
observable: CC50
Reply with the number, then its unit.

Examples from the recorded data:
compound	measured_value
C=C1C(=O)O[C@H]2[C@H]1CCC(C)=C1CC[C@@](C)(O)[C@@H]12 [MICHELIOLIDE]	21.9 µM
C/C1=C\CC[C@]2(C)O[C@@H]2[C@H]2OC(=O)[C@@H](CN(C)CCOc3no[n+]([O-])c3S(=O)(=O)c3ccccc3)[C@@H]2CC1	24.1 µM
CC1=C2CC[C@@](C)(O)[C@@H]2[C@H]2OC(=O)[C@@H](CN(C)CCOc3no[n+]([O-])c3S(=O)(=O)c3ccccc3)[C@@H]2CC1	59.5 µM
O=S(=O)(c1ccccc1)c1no[n+]([O-])c1S(=O)(=O)c1ccccc1	11.4 µM
CC1=C2CC[C@@](C)(O)[C@@H]2[C@H]2OC(=O)[C@@H](CN(C)CCCOc3no[n+]([O-])c3S(=O)(=O)c3ccccc3)[C@@H]2CC1	68.5 µM
C=C1C(=O)O[C@@H]2[C@H]3O[C@@]3(C)CC/C=C(\C)CC[C@@H]12	14.3 µM

Value of measured CC50 for the entry "C/C1=C\CC[C@]2(C)O[C@@H]2[C@H]2OC(=O)[C@@H](CN(C)CCCOc3no[n+]([O-])c3S(=O)(=O)c3ccccc3)[C@@H]2CC1" : 66.6 µM

From: ChEMBL document CHEMBL4725325
